Reference source for all entries: patent US11072581B2

Target Or Test System: SauIRS (isoleucyl-tRNA synthetase from Staphylococcus aureus) (Staphylococcus aureus)
Construct: made in house; host or cells: Escherichia coli M15
Sequence (P41972 whole entry): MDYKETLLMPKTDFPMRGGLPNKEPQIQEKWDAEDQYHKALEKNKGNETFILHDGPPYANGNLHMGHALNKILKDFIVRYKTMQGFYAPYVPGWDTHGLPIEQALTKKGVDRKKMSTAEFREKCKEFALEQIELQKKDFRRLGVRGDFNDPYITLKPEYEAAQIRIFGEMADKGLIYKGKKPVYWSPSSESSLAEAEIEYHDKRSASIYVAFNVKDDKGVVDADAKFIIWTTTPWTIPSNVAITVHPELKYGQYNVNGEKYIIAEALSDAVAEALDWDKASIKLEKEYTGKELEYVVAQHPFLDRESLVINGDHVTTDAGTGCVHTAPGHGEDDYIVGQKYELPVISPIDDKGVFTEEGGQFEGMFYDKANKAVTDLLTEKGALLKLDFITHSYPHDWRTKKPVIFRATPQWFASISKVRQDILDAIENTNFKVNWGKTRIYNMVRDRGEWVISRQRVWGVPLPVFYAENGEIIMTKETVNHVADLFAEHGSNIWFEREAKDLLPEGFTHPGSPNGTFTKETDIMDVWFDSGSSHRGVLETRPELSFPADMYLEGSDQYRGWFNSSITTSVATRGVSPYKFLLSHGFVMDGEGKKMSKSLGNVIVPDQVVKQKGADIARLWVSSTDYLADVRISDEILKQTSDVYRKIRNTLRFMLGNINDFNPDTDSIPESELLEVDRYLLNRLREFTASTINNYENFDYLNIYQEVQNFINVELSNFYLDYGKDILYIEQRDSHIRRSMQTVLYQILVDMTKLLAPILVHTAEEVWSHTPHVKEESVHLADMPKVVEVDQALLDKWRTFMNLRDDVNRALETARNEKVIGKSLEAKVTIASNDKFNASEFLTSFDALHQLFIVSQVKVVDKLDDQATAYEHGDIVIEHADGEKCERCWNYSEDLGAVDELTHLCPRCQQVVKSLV
Assay Remarks: aaRS aminoacylation assay (ATP consumption), SauIRS
Type: biochemical
Condition Summary: i.a. = inactive at a concentration below 50 uM
Structures can show the parent of a compound that is named as a salt.
Quantity Kind: IC50 SauIRS

Compound | Reported Result
CNc1cc(-c2cccc(S(=O)(=O)NC(=O)[C@@H](N)CC(C)C)c2)nc(N)n1 [Compound 5.27] | i.a
CC(C)C[C@H](N)C(=O)NS(=O)(=O)c1ccc(Oc2ccccc2)cc1 [Compound 5.2] | i.a
CC(C)C[C@H](N)C(=O)NS(=O)(=O)c1cccc(-c2cc(N)ncn2)c1 [Compound 5.46] | i.a.
CC(C)C[C@H](N)C(=O)NS(=O)(=O)c1ccccc1 [Compound 5.1, hydrochloride] | i.a.
CC(C)C[C@H](N)C(=O)NS(=O)(=O)c1cccc2ccccc12 [Compound 5.13] | i.a
CC(C)C[C@H](N)C(=O)NS(=O)(=O)c1cccc(-c2ccccc2)c1 [Compound 5.9] | i.a
CC(C)C[C@H](N)C(=O)NS(=O)(=O)c1cccc(-c2ccncc2)c1 [Compound 5.42] | i.a.

Consider the additional compound presented here.
**Q:** Query: IC50 SauIRS; subject: CC(C)C[C@H](N)C(=O)NS(=O)(=O)c1ccc(-c2ccccc2)cc1 [Compound 5.11]
**A:** i.a
